experimentalTarget: Urotensin-2 receptor (Rattus norvegicus, UniProt P49684)
Sequence (P49684 whole entry): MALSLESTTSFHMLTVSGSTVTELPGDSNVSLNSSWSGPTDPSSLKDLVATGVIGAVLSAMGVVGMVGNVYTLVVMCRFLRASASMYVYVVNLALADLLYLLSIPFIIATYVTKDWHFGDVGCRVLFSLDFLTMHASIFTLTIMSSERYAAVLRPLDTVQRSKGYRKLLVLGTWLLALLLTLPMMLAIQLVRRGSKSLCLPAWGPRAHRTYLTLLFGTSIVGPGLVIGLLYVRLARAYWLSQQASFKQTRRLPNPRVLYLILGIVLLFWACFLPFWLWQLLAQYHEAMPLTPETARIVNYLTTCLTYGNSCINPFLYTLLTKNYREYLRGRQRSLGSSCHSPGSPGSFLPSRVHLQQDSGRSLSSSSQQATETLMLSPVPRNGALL
testDetails: Agonist activity at UT receptor in rat aorta assessed as contraction
Peptide text beside a SMILES is read from it.
measuredMetric: EC50
Give the figure together with its unit, number first.

Some solved entries appear below for comparison.
{"molecule": "CC(C)[C@H](NC(=O)[C@@H]1CSSC(C)(C)[C@H](NC(=O)[C@@H](N)CC(=O)O)C(=O)N[C@@H](Cc2ccccc2)C(=O)N[C@@H](Cc2c[nH]c3ccccc23)C(=O)N[C@@H](CCCCN)C(=O)N[C@@H](Cc2ccc3ccccc3c2)C(=O)N1)C(=O)O (HELM PEPTIDE1{D.[Pen].F.W.K.[O=C([C@H](Cc1ccc2ccccc2c1)N[*:1])[*:2]].C.V}$PEPTIDE1,PEPTIDE1,2:R3-7:R3$$$V2.0)", "experimentalTarget": "Urotensin-2 receptor (Rattus norvegicus, UniProt P49684)", "EC50": "0.724 nM"}
{"molecule": "CC(C)[C@H](NC(=O)[C@@H]1CSSC(C)(C)[C@H](NC(=O)[C@@H](N)CC(=O)O)C(=O)N[C@@H](Cc2ccccc2)C(=O)N[C@@H](Cc2c[nH]c3ccccc23)C(=O)N[C@@H](CCCCN)C(=O)N[C@@H](Cc2cccc3ccccc23)C(=O)N1)C(=O)O (HELM PEPTIDE1{D.[Pen].F.W.K.[O=C([C@H](Cc1cccc2ccccc12)N[*:1])[*:2]].C.V}$PEPTIDE1,PEPTIDE1,2:R3-7:R3$$$V2.0)", "experimentalTarget": "Urotensin-2 receptor (Rattus norvegicus, UniProt P49684)", "EC50": "5.01 nM"}

Exam item: Answer with reported EC50 of CC(C)[C@H](NC(=O)[C@@H]1CSSC[C@H](NC(=O)[C@@H](N)CC(=O)O)C(=O)N[C@@H](Cc2ccccc2)C(=O)N[C@@H](Cc2c[nH]c3ccccc23)C(=O)N[C@@H](CCCCN)C(=O)N[C@@H](Cc2ccc(O)cc2)C(=O)N1)C(=O)O (HELM PEPTIDE1{D.C.F.W.K.Y.C.V}$PEPTIDE1,PEPTIDE1,2:R3-7:R3$$$V2.0)
Marked response: 3.63 nM
